Listed compounds paired with reported pIC50
Tested on: Plasmodium falciparum
protocol.notes: Antimalarial activity against schizont stage of chloroquine-resistant Plasmodium falciparum W2 infected in erythrocytes assessed as inhibition of [3H]hypoxanthine incorporation after 96 hrs by scintillation counting analysis
Format: functional, organism-based
In plain terms, pIC50 is the concentration in mol/L turned into minus its base-10 logarithm.

>>> test_result("CCOC(=O)c1cn(C2CC2)c2cc(N3CCN(CCC45CC6CC(CC(C6)C4)C5)CC3)c(F)cc2c1=O")
6.15

// query State the measured pIC50 (Plasmodium falciparum) of "CCOC(=O)c1cn(C2CC2)c2cc(N3CCNCC3)c(F)cc2c1=O"
// result 6.08

// query State the measured pIC50 (Plasmodium falciparum) of "CCOC(=O)c1cn(C2CC2)c2cc(N3CCN(Cc4ccccc4)CC3)c(F)cc2c1=O"
// result 6.31

// query State the measured pIC50 (Plasmodium falciparum) of "O=C1C(O)=C([C@H]2CC[C@H](c3ccc(Cl)cc3)CC2)C(=O)c2ccccc21"
// result 8.70

// query State the measured pIC50 (Plasmodium falciparum) of "CCc1nc(N)nc(N)c1-c1ccc(Cl)cc1"
// result 8.64

// query State the measured pIC50 (Plasmodium falciparum) of "O=C(O)c1cn(C2CC2)c2cc(N3CCNCC3)c(F)cc2c1=O"
// result 4.77

----------
System: Toxoplasma gondii
protocol.notes: Antitoxoplasma activity against Toxoplasma gondii RH tachyzoites isolated from human brain assessed as parasite growth inhibition after 24 hrs by hematoxylin-eosin staining based light microscopy
Type: functional, organism-based
measured.endpoint: pIC50
In plain terms, pIC50 is the concentration in mol/L turned into minus its base-10 logarithm.

// solved cases for pIC50 follow
>>> test_result("CCOC(=O)c1cn(C2CC2)c2cc(N3CCN(CCC45CC6CC(CC(C6)C4)C5)CC3)c(F)cc2c1=O")
6.04
>>> test_result("CCOC(=O)c1cn(C2CC2)c2cc(N3CCN(Cc4ccccc4)CC3)c(F)cc2c1=O")
5.77
>>> test_result("CCc1nc(N)nc(N)c1-c1ccc(Cl)cc1")
6.62

// query Consider the compound "CCOC(=O)c1cn(C2CC2)c2cc(N3CCNCC3)c(F)cc2c1=O" . State its measured pIC50.
// result 6.02

----------
protocol.notes: Therapeutic index, ratio of LD50 for concanavalin A stimulated BALB/c mouse splenocytes to IC50 for chloroquine-susceptible Plasmodium falciparum 3D7 infected in erythrocytes
Assay type: cell-based
settings: read-out: Ratio LD50/IC50
measured.endpoint: selectivity ratio

// query Consider the compound "CCOC(=O)c1cn(C2CC2)c2cc(N3CCN(CCC45CC6CC(CC(C6)C4)C5)CC3)c(F)cc2c1=O" . State its measured selectivity ratio.
// result > 100

----------
protocol.notes: Cytotoxicity against concanavalin A stimulated BALB/c mouse splenocytes after 72 hrs by alamar blue dye based plate reader analysis
Type: cell-based, Splenocyte
settings: read-out: LD50
measured.endpoint: CC50 at 72 h

// query Consider the compound "CCOC(=O)c1cn(C2CC2)c2cc(N3CCN(Cc4ccccc4)CC3)c(F)cc2c1=O" . State its measured CC50 at 72 h.
// result 57 µM

// query Consider the compound CCOC(=O)c1cn(C2CC2)c2cc(N3CCNCC3)c(F)cc2c1=O [CIPROFLOXACIN ETHYL ESTER] . State its measured CC50 at 72 h.
// result > 40 µM

// query Consider the compound "CCOC(=O)c1cn(C2CC2)c2cc(N3CCN(CCC45CC6CC(CC(C6)C4)C5)CC3)c(F)cc2c1=O" . State its measured CC50 at 72 h.
// result > 100 µM
